# reported %Inh; entries follow
Tested on: MEK6
Construct: gene MAP2K6
Measurement Parameters: concentration: 1 μM, replicates: in singlicate; n = 1;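 further: KINOMEscan kinase panel screen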
Write the value in % as a bare number.

CCn1c(-c2ccncc2)nc2cnccc21 [SB-735216] = 0
Clc1cc(Nc2ncnc3cc[nH]c23)ccc1OCc1ccccn1 = 17
CCc1nc(-c2cccc(N(C)S(=O)(=O)c3ccccc3)c2)c(-c2ccnc(Nc3ccc(N4CCN(C(C)=O)CC4)nc3)n2)s1 [GSK1645895] = 24
Cc1cccc(-c2nc(Nc3ccc4[nH]nnc4c3)c3ccccc3n2)n1 [GW867587] = 0
Cl.O=S(=O)(c1cccc(F)c1)c1ccc(Nc2ncnc3cc(Br)sc23)cc1Cl [GSK306886] = 38

Ask: What does the data say about its %Inh? Entry: Fc1cccc(COc2ccc(Nc3ncnc4cc[nH]c34)cc2Cl)c1
Result: 0

====

Test system: CSF1R
Measurement Parameters: concentration: 1 μM, replicates: in singlicate; n = 1
Measured Parameter: %Inh
Kindly write the number and append the unit.

Consider the following illustrative entries.
CN1c2ccc(-c3ccc(C(=O)NCCO)cc3)cc2-c2[nH]ncc2S1(=O)=O = 0%
Cc1ccc(C)c(NC(=O)NCCNc2ccnc(Nc3ccc(F)cc3)n2)c1 = 7%
Cc1ccc(NC(=O)c2cccc(C#N)c2)cc1-c1ccc(C(=O)Nc2ccncc2)cc1 = 98.3%

Read the next record carefully.
Ask: What does the data say about its %Inh? Entry: Nc1nc(-c2ccc3c(N)n[nH]c3c2)cc(N2CCC[C@@H](C(=O)Nc3ccccc3)C2)n1.O=C(O)C(F)(F)F.O=C(O)C(F)(F)F
Result: 13%

====

Tested on: CSNK1A1L
Measurement Parameters: concentration: 1 μM, replicates: in singlicate; n = 1
Measured Parameter: %Inh (%)
Write the value in % as a bare number.

Cl.Fc1ccccc1COc1ccc(Nc2ncnc3ccc(-c4nnc(C(F)(F)F)o4)cc23)cc1Cl = 0

Read the next record carefully.
Ask: What does the data say about its %Inh? Entry: CN1c2ccc(-c3ccc(C(=O)NCCO)cc3)cc2-c2[nH]ncc2S1(=O)=O
Result: 7

====

Tested on: TIE2
Construct: gene TEK
Measurement Parameters: concentration: 1 μM, replicates: in singlicate; n = 1
# reported %Inh; entries follow
Write the value in % as a bare number.

Consider the following illustrative entries.
Cn1ccc2ncnc(Oc3ccc(NC(=O)Nc4cccnc4)c(Cl)c3)c21 = 0
CC(C)(C)OC(=O)NC1CCCN(c2cc(-c3ccc4c(N)n[nH]c4c3)nc(N)n2)C1 (stereo not drawn) [GSK2286096] = 0

Read the next record carefully.
Ask: What does the data say about its %Inh? Entry: Clc1cccc(-c2nc(Nc3ccncc3)c3ccccc3n2)c1 [GW873004]
Result: 48

====

Tested on: PRKCE
Measurement Parameters: concentration: 1 μM, replicates: in singlicate; n = 1
# %Inh >= 10% gives 1, anything below gives 0

Nc1nc(-c2ccccn2)c(-c2ccnc3ccccc23)s1 [GW548057] = 1
O=C(CCO)NCCn1ccc2ncnc(Nc3ccc(Oc4cccc(C(F)(F)F)c4)c(Cl)c3)c21 = 0
NC(=O)c1sc(-n2cnc3ccccc32)cc1OCc1ccccc1F [GSK1024306] = 1
CSc1nn2c(=O)cc(N3CCOCC3)nc2n1Cc1cccc(Cl)c1Cl [GSK2347225] = 0
Cl.c1ccc(Cn2ccc3cc(Nc4ncnc5ccccc45)ccc32)cc1 [GW275568] = 0

Ask: Does Clc1ccc(-c2cc(-c3c[nH]nc3-c3ccccn3)ccn2)cc1 [GW681251] have a reported %Inh of at least 10%?
Result: 1

Ask: Does O=C(NCCCN1CCCC1=O)c1cnc(NCc2cc(Cl)ccc2Cl)nc1NC1CCNCC1 have a reported %Inh of at least 10%?
Result: 1

====

Tested on: RIOK2
Measurement Parameters: concentration: 1 μM, replicates: in singlicate; n = 1
Measured Parameter: %Inh

Ask: What does the data say about its %Inh? Entry: COc1cc2c(Nc3cccc(NC(=O)c4ccccc4)c3)ncnc2cc1OCCCN1CCOCC1
Result: 10%

Ask: What does the data say about its %Inh? Entry: Cl.Cl.c1ccc(-c2cc3ccncc3cc2OC2CCNCC2)cc1
Result: 0%

Ask: What does the data say about its %Inh? Entry: CC(C)(C)OC(=O)NC1CCCN(c2cc(-c3ccc4c(N)n[nH]c4c3)nc(N)n2)C1 (stereo not drawn)
Result: 27%

====

System: ERK8
Construct: gene MAPK15
Measurement Parameters: concentration: 1 μM, replicates: in singlicate; n = 1
# reported %Inh; entries follow
Kindly write the number and append the unit.

CCCc1ccc(S(=O)(=O)NC2CCN(c3ccnc(Nc4ccc(OC)cc4)n3)C2)cc1 (stereo not drawn) [GSK1379737] = 0%

Ask: What does the data say about its %Inh? Entry: CNc1nccc(-c2c(-c3ccc(F)cc3)ncn2CCCN2CCOCC2)n1 [SB-222516]
Result: 14%

Ask: What does the data say about its %Inh? Entry: Cc1cccc(-c2nc(Nc3ccc4[nH]nnc4c3)c3ccccc3n2)n1 [GW867587]
Result: 0%

====

# reported %Inh; entries follow
Tested on: MAP3K4
Measurement Parameters: concentration: 1 μM, replicates: in singlicate; n = 1
Write the value in % as a bare number.

CCn1c(-c2ccncc2)nc2cnccc21 = 23

Ask: What does the data say about its %Inh? Entry: FC(F)(F)c1cc(Nc2nccc(-c3c(-c4ccc(Cl)cc4)nn4ncccc34)n2)ccc1Cl
Result: 0

Ask: What does the data say about its %Inh? Entry: Cl.Cl.c1ccc(-c2cc3ccncc3cc2OC2CCNCC2)cc1
Result: 18

Ask: What does the data say about its %Inh? Entry: CCc1nc(-c2cccc(N(C)S(=O)(=O)c3ccccc3)c2)c(-c2ccnc(Nc3ccc(N4CCN(C(C)=O)CC4)nc3)n2)s1
Result: 18

====

System: AAK1
Measurement Parameters: concentration: 1 μM, replicates: in singlicate; n = 1
Categories are defined by ranges of %Inh, namely 1: < 1%; 2: ≥ 1% and < 20%; 3: ≥ 20%

Worked examples follow.
COc1ccc(Nc2nccc(N3CCC(NC(=O)c4cccc(NC(C)=O)c4)C3)n2)cc1 (stereo not drawn) [GSK1379732] = 2
Fc1cccc(COc2ccc(Nc3ncnc4sc(-c5ccc[nH]5)cc34)cc2Cl)c1 [GW707818] = 1
CSc1nn2c(=O)cc(N3CCOCC3)nc2n1Cc1cccc(Cl)c1Cl [GSK2347225] = 2
Cc1cccc(-c2nc(Nc3ccc4[nH]nnc4c3)c3ccccc3n2)n1 [GW867587] = 1
Cc1cc(N2CCC(NS(=O)(=O)c3ccc(F)cc3)CC2)nc(Nc2cccc(C#N)c2)n1.O=C(O)C(F)(F)F [GSK1653537] = 2
O=C(NCCCN1CCCC1=O)c1cnc(NCc2cc(Cl)ccc2Cl)nc1NC1CCNCC1 = 1
CN1CCC(n2cnc(-c3ccc(F)cc3)c2-c2ccnc(NC3CCNCC3)n2)CC1 [SB-229482] = 2
Cc1ccc(C)c(NC(=O)NCCNc2ccnc(Nc3ccc(F)cc3)n2)c1 [GSK1379878] = 3
Cn1ccc2ncnc(Oc3ccc(NC(=O)Nc4cccnc4)c(Cl)c3)c21 = 2
CNc1nccc(-c2c(-c3ccc(F)cc3)ncn2CCCN2CCOCC2)n1 [SB-222516] = 1

Ask: GET /class?item= FC(F)(F)c1cc(Nc2nccc(-c3c(-c4ccc(Cl)cc4)nn4ncccc34)n2)ccc1Cl [GW829351]
Result: 2

====

Tested on: BRK
Construct: gene PTK6
Measurement Parameters: concentration: 1 μM, replicates: in singlicate; n = 1
Measured Parameter: %Inh (%)
Write the value in % as a bare number.

Consider the following illustrative entries.
CNc1nccc(-c2c(-c3ccc(F)cc3)ncn2CCCN2CCOCC2)n1 [SB-222516] = 0
Cl.c1ccc(Cn2ncc3cc(Nc4ncnc5ccccc45)ccc32)cc1 [GW273749] = 0
Cc1ccc(O)cc1Nc1cc(C(F)(F)F)nc2ccc(-c3ccncc3)cc12 [GW630823] = 11
Nc1nc(-c2ccc3c(N)n[nH]c3c2)cc(N2CCCCC2)n1 [GSK2228768] = 0
Fc1cccc(COc2ccc(Nc3ncnc4cc[nH]c34)cc2Cl)c1 = 11

Read the next record carefully.
Ask: What does the data say about its %Inh? Entry: C[C@@H]1CCN(C(=O)CO)C[C@@H]1N(C)c1ncnc2[nH]ccc12
Result: 0

====

System: PRKCD
Measurement Parameters: concentration: 1 μM, replicates: in singlicate; n = 1
# reported %Inh; entries follow
Kindly write the number and append the unit.

C[C@H]1CC[C@@H](C(=O)Nc2ccccc2)CN1c1cc(-c2ccc3c(N)n[nH]c3c2)nc(N)n1 = 0%

Ask: What does the data say about its %Inh? Entry: Cl.O=S(=O)(c1cccc(F)c1)c1ccc(Nc2ncnc3cc(Br)sc23)cc1Cl
Result: 0%

Ask: What does the data say about its %Inh? Entry: Nc1nc(-c2ccccn2)c(-c2ccnc3ccccc23)s1
Result: 0%

Ask: What does the data say about its %Inh? Entry: CSc1ccc(NC2=C(c3ccccc3Cl)C(=O)NC2=O)cc1
Result: 26%

Ask: What does the data say about its %Inh? Entry: Cl.Cn1ccc(-c2cccc(Nc3ccnc4cc(-c5nccs5)ccc34)c2)n1
Result: 0%

Ask: What does the data say about its %Inh? Entry: Cc1cc(N2CCC(NS(=O)(=O)c3ccc(F)cc3)CC2)nc(Nc2cccc(C#N)c2)n1.O=C(O)C(F)(F)F
Result: 3%

Ask: What does the data say about its %Inh? Entry: N#Cc1ccc(Oc2ccc(Nc3ncnc4cc[nH]c34)cc2Cl)cc1
Result: 0%
